# IC50 values compiled below
Biological target: Human recombinant MMP9 (Homo sapiens)
Experiment: MMP9 (Gelatinase B) inhibition, 14C gelatin release
Conditions: 37° C., 16 hours; read-out: MMP-9 inhibitory activity, IC50
quantity-name: IC50 (µM)

- molecule: "CC1c2c([N+]#N)cc(C(C)(C)C)c(O)c2C(=O)C2=C(O)C3(O)C(=O)C(C(N)=O)=C(O)CC3C(O)C21 (stereo not shown)"
  unit-of-measurement: "µM"
  result-comparator: "="
  reported-measurement: 34
- molecule: "CC(=O)Nc1cc(N(C)C)c2c(c1O)C(=O)C1=C(O)C3(O)C(=O)C(C(N)=O)=C(O)C(N(C)C)C3CC1C2 (stereo not shown)"
  unit-of-measurement: "µM"
  result-comparator: ">"
  reported-measurement: 1000
- molecule: "CC(C)Nc1ccc2c(c1O)C(=O)C1=C(O)C3(O)C(=O)C(C(N)=O)=C(O)C(N(C)C)C3C(O)C1C2C (stereo not shown)"
  unit-of-measurement: "µM"
  result-comparator: "="
  reported-measurement: 136
- molecule: "CC(C)CNc1ccc(O)c2c1C(C)C1C(=C(O)C3(O)C(=O)C(C(N)=O)=C(O)C(N(C)C)C3C1O)C2=O (stereo not shown)"
  unit-of-measurement: "µM"
  result-comparator: "="
  reported-measurement: 148

* * *

Tested on: MDA-MB-231 human breast cancer cells
Assay: Membrane Invasion Culture System (MICS) chemo-invasion assay
Assay type: cell-based
Details: 10 ug/mL; 24 hours; + = increased invasiveness
Where a name gives a salt, the structure may show the parent alone.

- compound: "CC1c2c([N+]#N)cc(C(C)(C)C)c(O)c2C(=O)C2=C(O)C3(O)C(=O)C(C(N)=O)=C(O)CC3C(O)C21 (stereo not drawn) [Compound 50]"
  unit-of-measurement: "%"
  percent inhibition, MDA-MB-231 (Breast): 0
- compound: "CN(C)C1C(O)=C(C(N)=O)C(=O)C2(O)C(O)=C3C(=O)c4c(O)ccc(Cl)c4C(C)(O)C3CC12 (stereo not drawn) [Compound 52, 4-Epi-7-Chlorotetracycline hydrochloride]"
  unit-of-measurement: "%"
  percent inhibition, MDA-MB-231 (Breast): 12
- compound: "CC1c2ccc([N+]#N)c(O)c2C(=O)C2=C(O)C3(O)C(=O)C(C(N)=O)=C(O)C(N(C)C)C3C(O)C21 (stereo not drawn) [Compound 11]"
  unit-of-measurement: "%"
  percent inhibition, MDA-MB-231 (Breast): 15
- compound: "CC1c2ccc(N)c(O)c2C(=O)C2=C(O)C3(O)C(=O)C(C(N)=O)=C(O)C(N(C)C)C3C(O)C21 (stereo not drawn) [Compound 2]"
  unit-of-measurement: "%"
  percent inhibition, MDA-MB-231 (Breast): 15
- compound: "CN(C)C1C(O)=C(C(N)=O)C(=O)C2(O)C(O)=C3C(=O)c4c(O)c(Br)cc(Br)c4CC3CC12 (stereo not drawn) [Compound 13]"
  unit-of-measurement: "%"
  percent inhibition, MDA-MB-231 (Breast): 0
- compound: "CN(C)c1ccc(O)c2c1CC1CC3CC(O)=C(C(N)=O)C(=O)C3(O)C(O)=C1C2=O (stereo not drawn) [Compound 41]"
  unit-of-measurement: "%"
  percent inhibition, MDA-MB-231 (Breast): 3
- compound: "CC1c2ccc([N+]#N)c(O)c2C(=O)C2=C(O)C3(O)C(=O)C(C(N)=O)=C(O)CC3C(O)C21.O=S(=O)([O-])O (stereo not drawn) [Compound 37]"
  unit-of-measurement: "%"
  percent inhibition, MDA-MB-231 (Breast): 1
- compound: "CC1c2c([N+](=O)[O-])cc(C(C)(C)C)c(O)c2C(=O)C2=C(O)C3(O)C(=O)C(C(N)=O)=C(O)CC3C(O)C21 (stereo not drawn) [Compound 40]"
  unit-of-measurement: "%"
  percent inhibition, MDA-MB-231 (Breast): 15

* * *

Readings of pIC50 for the listed molecules
Molecular target: Human recombinant MMP14 (Homo sapiens, UniProt P50281)
Experiment: MMP14 (MTI-MMP) inhibition, 14C collagen release
Conditions: 35° C., 15 hours; read-out: MMP-14 inhibitory activity, IC50
pIC50: −log10 of the molar value.

- molecule: "CC1c2c(N)cc(C(C)(C)C)c(O)c2C(=O)C2=C(O)C3(O)C(=O)C(C(N)=O)=C(O)CC3C(O)C21.O=S(=O)(O)O (stereo not drawn)"
  pIC50: 4.06
- molecule: "CC1c2ccc(C(C)(C)C)c(O)c2C(=O)C2=C(O)C3(O)C(=O)C(C(N)=O)=C(O)C(N(C)C)C3C(O)C21 (stereo not drawn)"
  pIC50: 4.08
- molecule: "CC1c2c(NC3CCC3)ccc(O)c2C(=O)C2=C(O)C3(O)C(=O)C(C(N)=O)=C(O)C(N(C)C)C3C(O)C21 (stereo not drawn)"
  pIC50: 3.71

* * *

Molecular target: Human recombinant MMP9 (Homo sapiens, UniProt P14780)
Sequence (P14780 94-707): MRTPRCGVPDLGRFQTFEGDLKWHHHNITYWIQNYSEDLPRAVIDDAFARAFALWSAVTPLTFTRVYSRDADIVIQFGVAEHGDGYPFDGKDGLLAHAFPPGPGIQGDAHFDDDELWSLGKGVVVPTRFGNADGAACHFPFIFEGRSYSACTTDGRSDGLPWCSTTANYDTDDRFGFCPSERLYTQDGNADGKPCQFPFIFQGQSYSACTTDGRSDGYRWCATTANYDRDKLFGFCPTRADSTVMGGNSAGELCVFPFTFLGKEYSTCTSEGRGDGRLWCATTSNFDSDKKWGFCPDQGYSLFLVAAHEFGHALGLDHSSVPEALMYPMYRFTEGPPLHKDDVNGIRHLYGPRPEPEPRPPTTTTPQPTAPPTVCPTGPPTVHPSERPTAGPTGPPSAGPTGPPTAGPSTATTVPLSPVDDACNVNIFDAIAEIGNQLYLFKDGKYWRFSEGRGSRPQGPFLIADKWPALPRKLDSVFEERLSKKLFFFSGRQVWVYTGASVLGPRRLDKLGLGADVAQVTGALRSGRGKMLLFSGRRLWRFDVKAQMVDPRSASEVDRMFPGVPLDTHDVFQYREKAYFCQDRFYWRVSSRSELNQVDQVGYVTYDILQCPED
Assay: MMP9 (Gelatinase B) inhibition, 14C gelatin release
Format: biochemical
Conditions: 37° C., 16 hours; read-out: MMP-9 inhibitory activity, IC50
pIC50: −log10 of the molar value.
// reported pIC50 per item

- compound: "CC1c2c(N)cc(C(C)(C)C)c(O)c2C(=O)C2=C(O)C3(O)C(=O)C(C(N)=O)=C(O)CC3C(O)C21.O=S(=O)(O)O (stereo not drawn)"
  study-system: "Human recombinant MMP9 (Homo sapiens, UniProt P14780)"
  result-comparator: "="
  pIC50: 3.31
- compound: "CC1c2ccc(N)c(O)c2C(=O)C2=C(O)C3(O)C(=O)C(C(N)=O)=C(O)CC3C(O)C21 (stereo not drawn)"
  study-system: "Human recombinant MMP9 (Homo sapiens, UniProt P14780)"
  result-comparator: "<"
  pIC50: 3.00
- compound: "CN(C)c1cc([N+](=O)[O-])c(O)c2c1CC1CC3C(N(C)C)C(O)=C(C(N)=O)C(=O)C3(O)C(O)=C1C2=O (stereo not drawn)"
  study-system: "Human recombinant MMP9 (Homo sapiens, UniProt P14780)"
  result-comparator: "="
  pIC50: 4.44
- compound: "CC(=O)Nc1ccc(O)c2c1C(C)C1C(=C(O)C3(O)C(=O)C(C(N)=O)=C(O)C(N(C)C)C3C1O)C2=O (stereo not drawn)"
  study-system: "Human recombinant MMP9 (Homo sapiens, UniProt P14780)"
  result-comparator: "<"
  pIC50: 3.00
- compound: "CC1c2c(NC3CCC3)ccc(O)c2C(=O)C2=C(O)C3(O)C(=O)C(C(N)=O)=C(O)C(N(C)C)C3C(O)C21 (stereo not drawn)"
  study-system: "Human recombinant MMP9 (Homo sapiens, UniProt P14780)"
  result-comparator: "="
  pIC50: 3.67
- compound: "C[C@H]1c2c(N)ccc(O)c2C(=O)C2=C(O)[C@]3(O)C(=O)C(C(N)=O)=C(O)[C@@H](N(C)C)[C@@H]3[C@@H](O)[C@@H]21.O=S(=O)(O)O"
  study-system: "Human recombinant MMP9 (Homo sapiens, UniProt P14780)"
  result-comparator: "="
  pIC50: 3.57

* * *

System: MDA-MB-231 human breast cancer cells
Assay: Membrane Invasion Culture System (MICS) chemo-invasion assay
Format: cell-based
Conditions: 10 ug/mL; 24 hours; + = increased invasiveness
quantity-name: percent inhibition, MDA-MB-231 (Breast)

- compound: "CC1c2ccc(-c3ccc(F)cc3)c(O)c2C(=O)C2=C(O)C3(O)C(=O)C(C(N)=O)=C(O)C(N(C)C)C3C(O)C21 (stereo not drawn)"
  reported-measurement: "+18%"
- compound: "CN(C)c1cc([N+](=O)[O-])c(O)c2c1CC1CC3C(N(C)C)C(O)=C(C(N)=O)C(=O)C3(O)C(O)=C1C2=O (stereo not drawn)"
  reported-measurement: "6%"
- compound: "CC1c2c(N)cc(C(C)(C)C)c(O)c2C(=O)C2=C(O)C3(O)C(=O)C(C(N)=O)=C(O)CC3C(O)C21.O=S(=O)(O)O (stereo not drawn)"
  reported-measurement: "+5%"

* * *

Target sequence: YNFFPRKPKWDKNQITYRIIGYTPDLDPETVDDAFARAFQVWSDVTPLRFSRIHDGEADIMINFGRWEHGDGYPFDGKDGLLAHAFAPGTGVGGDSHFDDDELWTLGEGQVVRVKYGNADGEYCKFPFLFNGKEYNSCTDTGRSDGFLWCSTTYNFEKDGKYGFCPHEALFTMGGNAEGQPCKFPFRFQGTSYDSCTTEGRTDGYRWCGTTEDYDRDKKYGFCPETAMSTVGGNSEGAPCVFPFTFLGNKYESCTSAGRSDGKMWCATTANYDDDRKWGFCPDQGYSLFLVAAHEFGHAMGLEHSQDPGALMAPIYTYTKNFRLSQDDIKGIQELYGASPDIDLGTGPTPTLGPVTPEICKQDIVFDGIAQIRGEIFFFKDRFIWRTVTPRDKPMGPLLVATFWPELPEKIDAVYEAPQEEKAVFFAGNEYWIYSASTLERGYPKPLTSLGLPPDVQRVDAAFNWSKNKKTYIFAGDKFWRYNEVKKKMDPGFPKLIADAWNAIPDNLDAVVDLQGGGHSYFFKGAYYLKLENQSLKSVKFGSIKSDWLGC
pIC50: −log10 of the molar value.

- molecule: "CC1c2c([N+](=O)[O-])cc(C(C)(C)C)c(O)c2C(=O)C2=C(O)C3(O)C(=O)C(C(N)=O)=C(O)CC3C(O)C21 (stereo not drawn) [Compound 40]"
  result-comparator: "="
  pIC50: 3.44
- molecule: "CC1c2c([N+]#N)ccc(O)c2C(=O)C2=C(O)C3(O)C(=O)C(C(N)=O)=C(O)C(N(C)C)C3C(O)C21 (stereo not drawn) [Compound 21]"
  result-comparator: "<"
  pIC50: 3.00
- molecule: "CC(C)CN(C)c1ccc(O)c2c1C(C)C1C(=C(O)C3(O)C(=O)C(C(N)=O)=C(O)C(N(C)C)C3C1O)C2=O (stereo not drawn) [Compound 27]"
  result-comparator: "="
  pIC50: 3.02

Origin of the recorded values: patent US7214669B2
